- Substrate: F protein of hRSV strain Long (hRSV strain Long)
- EXPERIMENT NOTES: binding ELISA on coated hRSV (Hytest), anti-VHH detection
pEC50: −log10 of the molar value.

BINDER	pEC50
Nanobody 7B2 (VHH) VHH: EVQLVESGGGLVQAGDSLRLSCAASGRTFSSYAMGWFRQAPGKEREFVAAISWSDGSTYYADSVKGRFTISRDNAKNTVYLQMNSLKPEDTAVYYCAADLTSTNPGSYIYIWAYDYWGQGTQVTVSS	10.05
Nanobody 191D3 (VHH) VHH: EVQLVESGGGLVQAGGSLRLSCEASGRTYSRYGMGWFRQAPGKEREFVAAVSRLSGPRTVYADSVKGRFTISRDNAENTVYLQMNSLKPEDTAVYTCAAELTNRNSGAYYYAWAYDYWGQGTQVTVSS	9.82
Nanobody 15H8 (VHH) VHH: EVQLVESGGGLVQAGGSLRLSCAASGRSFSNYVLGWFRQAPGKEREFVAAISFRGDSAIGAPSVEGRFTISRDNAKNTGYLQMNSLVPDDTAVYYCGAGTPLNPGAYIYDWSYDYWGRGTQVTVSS	9.08
Nanobody 15B3 (VHH) VHH: EVQLVESGGGLVQPGGSLRLSCAASGLTLDYYALGWFRQAPGKEREGVSCISSSDHSTTYTDSVKGRFTISWDNAKNTLYLQMNSLKPGDTAVYYCAADPALGCYSGSYYPRYDYWGQGTQVTVSS	10.24
